B1: tRNA (parent)
chain: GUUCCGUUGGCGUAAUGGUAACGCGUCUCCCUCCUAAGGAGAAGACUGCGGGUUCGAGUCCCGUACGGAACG

Variants of: B1
method description: yeast fitness, log relative to wild type (ln ratio); higher = fitter; tRNA-Arg(CCU), competitive growth, 37 C, 1 M NaCl
Note to self: values exactly at -0.3 are Y. So yeast fitness (ln) at or above -0.3 is Y, below is N.

Record excerpt, results attached:
>>> label_value("G1A U2C G6U C66A A70U C71U")
"Y"
>>> label_value("G1A U2C G6U C27U A43C C46U A69G A70U")
"Y"
>>> label_value("G6U")
"Y"
>>> label_value("G1A U2G G6A A43C C46U C66A A70U C71U")
"Y"
>>> label_value("G1A U2G G6A A69G A70U C71U")
"N"

Say whether U2G G6U C66U A69G C71U shows yeast fitness (ln) of -0.3 or more. Y

Do the same for G1A U2G G6U C27U A69G A70G please N

Do the same for G1A G6U A43C C46U C66U A70U please Y

Do the same for G6A A70G C71U please Y

Do the same for G1A U2C A70U C71U please Y
